# assay system: T1, His-tagged human PD-1 ECD (human, UniProt Q15116 25-170)
# T1 construct: bought from Acro Biosystems; not shown: His tag
# T1 sequence (Q15116 25-170): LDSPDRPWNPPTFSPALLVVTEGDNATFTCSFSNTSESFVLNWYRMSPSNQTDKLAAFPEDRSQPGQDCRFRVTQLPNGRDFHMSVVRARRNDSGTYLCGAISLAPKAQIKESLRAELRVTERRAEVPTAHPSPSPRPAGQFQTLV
# test details: SPR, IgG captured, monovalent PD-1 ECD analyte
test readout: kon
Write the figure, then the unit, nothing else.

Asked: Need kon, item 12796.15376 (antibody, human IgG1, lambda, L234A L235A, V domains shown, humanized, IgG1 LALA, lambda) VH: EVQLLESGGGLVQPGGSLRLSCAASGFDFSSYTMQWVRQAPGKGLEWVGVISSTGGSTGYGPAVKGRATISRDNSKNTLYLQMNSLRAEDTAVYYCVKSVSGDAWSVDGLDAWGQGTLVTVSS VL: SYELTQDPAVSVALGQTVRITCSGGGSAYGWYQQKPGQAPVTVIYYNNQRPSDIPDRFSGSSSGNTASLTITGAQAEDEADYYCGSYDSSAVGIFGSGTKVTVLG
Given back: 710000 M⁻¹ s⁻¹
